System: SN12C renal
Assay: NCI-60 one-dose screen, 48 h (100 = growth as untreated, 0 = no growth, -100 = all killed)
Details: 10 µM
Procedure: Growth inhibition of the SN12C human tumor cell line is measured as a screen for anti-cancer activity. Cells are grown in 96 well plates and exposed to the test compound for 48 hours. Compounds are tested at a single concentration, which is 10^-5 M for most compounds. The reported endpoint is percent growth (GI% or GIPRCNT), where numbers from 0 - 100% represent growth inhibition, and numbers from -100% - 0 represent cell death. For example, a value of 40 represents 60% growth inhibition. […]
This is part of a sample that, as a whole, favours compounds with a hit. Of some 83,000 tested, about 20% had one in any assay.
growth by entry:
attributeMeasured: growth (%)

| compound | testedOn | attributeMeasured | experimentalResult |
| --- | --- | --- | --- |
| C[n+]1c(/C=C/c2c[nH]c3ccccc23)ccc2ccccc21 | SN12C renal | growth | 64.4 |
| CC(=O)OC1Oc2ccccc2-c2oc(=O)c(-c3ccc(F)cc3)cc21 (stereo unspecified) | SN12C renal | growth | 88.3 |
| COc1ccc(/C=C2\SC(=S)N(CCCN3CCOCC3)C2=O)c(OC)c1 | SN12C renal | growth | 93.8 |
| CCOC(=O)c1sc(NC(=O)c2cc(OC)c(OC)c(OC)c2)nc1C | SN12C renal | growth | 92.6 |
| COc1cc(OC)cc(-c2ccc(-c3ccc(C(=N)N)cn3)o2)c1 | SN12C renal | growth | -50.5 |
| Cn1c([N+](=O)[O-])cnc1C=C1C(=O)c2ccccc2C1=O | SN12C renal | growth | 42.9 |
| Cc1ccc(C(=O)O)c(N)c1C | SN12C renal | growth | 106 |
| COc1c(-c2c3sc(=O)[nH]c3nc3c2c(=O)[nH]n3C(C)C)cc2c(c1OC)OCO2 | SN12C renal | growth | 95.5 |
| [O-]c1c[n+](-c2ccc(Cl)cc2)no1 | SN12C renal | growth | 92.9 |
| C/C=C\COc1cc(C)c(Cl)cc1Cl | SN12C renal | growth | 94.7 |
| N#C/C(=C/c1cc([N+](=O)[O-])ccc1Cl)C(N)=O | SN12C renal | growth | 98.8 |

###

test system: HOP-62 NSCLC; experiment: NCI-60 one-dose screen, 48 h (100 = growth as untreated, 0 = no growth, -100 = all killed); settings: 10 µM
This is part of a sample that, as a whole, favours compounds with a hit. Of some 83,000 tested, about 20% had one in any assay.

| compound | unitSpec | growth |
| --- | --- | --- |
| Cn1c(=O)c2[nH]c(C(O)c3ccc(Cl)cc3)nc2n(C)c1=O (stereo not given) | % | 94.7 |
| COc1cccc(-c2nnc(COc3ccc(-c4nc5ccc(C)cc5[nH]4)cc3OC)o2)c1 | % | 101 |
| NC1CCC(Nc2nc(NCc3ccc(-c4ccccc4O)nc3)c3ncn(C4CCCC4)c3n2)CC1 (stereo not given) | % | -9.04 |
| O=C(CCCC(=O)N/N=C/c1cc(Cl)ccc1O)N/N=C\c1cc(Cl)ccc1O | % | 24.1 |
| CCOC(=O)c1ccc(N(C=O)CCC(=O)CCl)cc1 | % | 29.8 |
| CCN1CCN(c2ccc(Nc3ncnc4c3nnn4CCc3cc(OC)cc(OC)c3)cc2)CC1 | % | 99.4 |
| COc1cc(CSc2nc3ccc(Cl)cc3c(=O)n2-c2ccccc2)cc(OC)c1OC | % | 72 |
| NC(N)=NS(=O)(=O)c1ccc(Nc2ccc3nnc(-c4ccncc4)n3n2)cc1 | % | 110 |
| COc1ccc(C2C=C(c3ccc(Cl)c(Cl)c3)N=C3SC(C)=CN32)cc1 (stereo not given) | % | 99.5 |
| COc1ccc(Cn2cc3c(c2-c2cc(OC)c(OC)c(OC)c2)CCc2cnoc2-3)cc1N | % | 47.4 |
